Biological target: T1, monkey MSLN on HEK293T-monkey MSLN recombinant cells (monkey)
T1 construct: Full-length precursor as transfected; processing on the cell is not described; also called HEK293-monkey MSLN
T1 chain: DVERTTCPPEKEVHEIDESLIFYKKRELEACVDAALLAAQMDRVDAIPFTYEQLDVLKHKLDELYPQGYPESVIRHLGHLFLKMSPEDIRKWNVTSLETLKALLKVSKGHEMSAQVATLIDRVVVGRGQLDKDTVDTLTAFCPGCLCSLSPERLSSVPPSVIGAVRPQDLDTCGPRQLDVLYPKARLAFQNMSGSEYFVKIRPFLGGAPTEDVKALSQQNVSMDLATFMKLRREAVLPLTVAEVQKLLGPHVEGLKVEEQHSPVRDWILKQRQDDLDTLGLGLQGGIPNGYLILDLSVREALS
Test: FACS, HEK293T-monkey MSLN cells
readout-label: Maximum_MFI (MFI)
A number alone suffices; assume MFI.

Solved entries:
Prompt: Quick one: Maximum_MFI of F7.33.24-H5 (scFv, not shown: small tags and cut ends, also called S009-F7.33.24 humanized antibody VH1a + VL2) scFv: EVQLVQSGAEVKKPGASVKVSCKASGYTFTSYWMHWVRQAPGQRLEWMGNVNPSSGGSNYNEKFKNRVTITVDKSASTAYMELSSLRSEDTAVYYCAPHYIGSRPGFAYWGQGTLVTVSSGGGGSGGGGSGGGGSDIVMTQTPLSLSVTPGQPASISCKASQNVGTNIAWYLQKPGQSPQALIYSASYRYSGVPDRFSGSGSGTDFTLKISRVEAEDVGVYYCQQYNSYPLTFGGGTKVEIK ?
Response: 8430

Prompt: Next: F7.33.24-H9 (scFv, not shown: small tags and cut ends, also called S009-F7.33.24 humanized antibody VH2 + VL3) scFv: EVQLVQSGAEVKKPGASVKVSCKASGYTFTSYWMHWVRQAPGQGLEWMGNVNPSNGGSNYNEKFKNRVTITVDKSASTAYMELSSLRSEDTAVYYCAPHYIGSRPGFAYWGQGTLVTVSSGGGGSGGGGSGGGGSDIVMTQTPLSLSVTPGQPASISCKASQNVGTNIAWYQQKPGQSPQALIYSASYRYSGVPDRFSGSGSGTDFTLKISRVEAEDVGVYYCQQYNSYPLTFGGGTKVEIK
Response: 8080

Prompt: Next: F7.33.24-H6 (scFv, not shown: small tags and cut ends, also called S009-F7.33.24 humanized antibody VH1a + VL3) scFv: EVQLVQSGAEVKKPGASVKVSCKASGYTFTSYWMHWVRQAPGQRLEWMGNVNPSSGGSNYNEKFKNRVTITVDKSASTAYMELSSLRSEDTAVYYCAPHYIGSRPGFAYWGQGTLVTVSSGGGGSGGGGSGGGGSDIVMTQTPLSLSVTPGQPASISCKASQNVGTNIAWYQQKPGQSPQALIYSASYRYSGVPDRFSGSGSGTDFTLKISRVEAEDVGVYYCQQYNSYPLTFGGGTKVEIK
Response: 8440

Prompt: Next: F7.33.24-H8 (scFv, not shown: small tags and cut ends, also called S009-F7.33.24 humanized antibody VH2 + VL2) scFv: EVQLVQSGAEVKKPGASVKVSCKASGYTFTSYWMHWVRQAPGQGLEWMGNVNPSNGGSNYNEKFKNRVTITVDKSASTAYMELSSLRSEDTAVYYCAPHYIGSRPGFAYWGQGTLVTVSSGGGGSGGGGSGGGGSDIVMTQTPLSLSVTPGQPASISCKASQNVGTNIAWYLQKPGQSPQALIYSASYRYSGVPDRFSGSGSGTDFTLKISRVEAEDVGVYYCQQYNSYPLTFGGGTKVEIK
Response: 8000

Prompt: Next: F7.33.24-H7 (scFv, not shown: small tags and cut ends, also called S009-F7.33.24 humanized antibody VH2 + VL1) scFv: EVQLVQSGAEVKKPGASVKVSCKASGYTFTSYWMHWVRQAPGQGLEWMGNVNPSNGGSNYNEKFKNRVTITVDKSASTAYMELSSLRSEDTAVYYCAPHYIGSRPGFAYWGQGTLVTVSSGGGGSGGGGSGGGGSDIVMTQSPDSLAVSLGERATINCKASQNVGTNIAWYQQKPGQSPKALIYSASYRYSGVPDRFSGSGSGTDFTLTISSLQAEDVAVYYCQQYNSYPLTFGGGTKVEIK
Response: 8820

Prompt: Next: F7.33.24-H3 (scFv, not shown: small tags and cut ends, also called S009-F7.33.24 humanized antibody VH1 + VL3) scFv: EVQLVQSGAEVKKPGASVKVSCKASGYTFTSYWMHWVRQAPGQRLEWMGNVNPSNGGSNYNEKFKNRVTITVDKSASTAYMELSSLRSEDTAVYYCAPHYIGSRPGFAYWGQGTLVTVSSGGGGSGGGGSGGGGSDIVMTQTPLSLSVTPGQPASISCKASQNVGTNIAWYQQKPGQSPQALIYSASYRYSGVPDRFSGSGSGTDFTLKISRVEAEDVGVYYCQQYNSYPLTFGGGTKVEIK
Response: 8310

Prompt: Next: F7.33.24-H4 (scFv, not shown: small tags and cut ends, also called S009-F7.33.24 humanized antibody VH1a + VL1) scFv: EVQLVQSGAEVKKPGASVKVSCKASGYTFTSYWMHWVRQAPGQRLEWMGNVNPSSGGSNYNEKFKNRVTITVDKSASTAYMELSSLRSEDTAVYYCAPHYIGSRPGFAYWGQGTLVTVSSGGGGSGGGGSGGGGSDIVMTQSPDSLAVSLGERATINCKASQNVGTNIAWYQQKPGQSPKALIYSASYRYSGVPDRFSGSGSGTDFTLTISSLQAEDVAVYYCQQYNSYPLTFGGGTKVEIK
Response: 9380

Prompt: Next: F7.33.24-H2 (scFv, not shown: small tags and cut ends, also called S009-F7.33.24 humanized antibody VH1 + VL2) scFv: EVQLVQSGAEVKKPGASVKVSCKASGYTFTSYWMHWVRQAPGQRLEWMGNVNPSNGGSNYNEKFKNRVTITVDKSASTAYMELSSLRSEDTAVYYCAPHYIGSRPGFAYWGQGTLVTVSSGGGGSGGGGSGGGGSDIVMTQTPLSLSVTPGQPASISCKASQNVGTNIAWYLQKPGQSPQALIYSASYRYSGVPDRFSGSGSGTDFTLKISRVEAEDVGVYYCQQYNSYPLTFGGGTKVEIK
Response: 8170

Others:
Prompt: Quick one: Maximum_MFI of F7.33.24-H10 (scFv, not shown: small tags and cut ends, also called S009-F7.33.24 humanized antibody VH2a + VL1) scFv: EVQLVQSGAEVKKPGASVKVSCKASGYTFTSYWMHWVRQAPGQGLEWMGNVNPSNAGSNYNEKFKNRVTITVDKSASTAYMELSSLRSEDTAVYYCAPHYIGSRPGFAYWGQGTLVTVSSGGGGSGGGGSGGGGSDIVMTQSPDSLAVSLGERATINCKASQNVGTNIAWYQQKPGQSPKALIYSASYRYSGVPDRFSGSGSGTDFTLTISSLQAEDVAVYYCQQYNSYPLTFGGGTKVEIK ?
Response: 8620

Prompt: Next: F7.33.24-H12 (scFv, not shown: small tags and cut ends, also called S009-F7.33.24 humanized antibody VH2a + VL3) scFv: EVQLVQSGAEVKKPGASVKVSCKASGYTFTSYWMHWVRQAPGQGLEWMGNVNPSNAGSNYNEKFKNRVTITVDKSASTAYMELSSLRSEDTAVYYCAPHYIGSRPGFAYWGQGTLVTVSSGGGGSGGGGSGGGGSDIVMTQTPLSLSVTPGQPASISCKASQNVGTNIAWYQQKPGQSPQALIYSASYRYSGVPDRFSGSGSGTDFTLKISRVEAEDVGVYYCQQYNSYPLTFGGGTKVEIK
Response: 7940
